Molecular target: T1, hIL-4Rα on cells (human, UniProt P24394 26-825)
T1 sequence: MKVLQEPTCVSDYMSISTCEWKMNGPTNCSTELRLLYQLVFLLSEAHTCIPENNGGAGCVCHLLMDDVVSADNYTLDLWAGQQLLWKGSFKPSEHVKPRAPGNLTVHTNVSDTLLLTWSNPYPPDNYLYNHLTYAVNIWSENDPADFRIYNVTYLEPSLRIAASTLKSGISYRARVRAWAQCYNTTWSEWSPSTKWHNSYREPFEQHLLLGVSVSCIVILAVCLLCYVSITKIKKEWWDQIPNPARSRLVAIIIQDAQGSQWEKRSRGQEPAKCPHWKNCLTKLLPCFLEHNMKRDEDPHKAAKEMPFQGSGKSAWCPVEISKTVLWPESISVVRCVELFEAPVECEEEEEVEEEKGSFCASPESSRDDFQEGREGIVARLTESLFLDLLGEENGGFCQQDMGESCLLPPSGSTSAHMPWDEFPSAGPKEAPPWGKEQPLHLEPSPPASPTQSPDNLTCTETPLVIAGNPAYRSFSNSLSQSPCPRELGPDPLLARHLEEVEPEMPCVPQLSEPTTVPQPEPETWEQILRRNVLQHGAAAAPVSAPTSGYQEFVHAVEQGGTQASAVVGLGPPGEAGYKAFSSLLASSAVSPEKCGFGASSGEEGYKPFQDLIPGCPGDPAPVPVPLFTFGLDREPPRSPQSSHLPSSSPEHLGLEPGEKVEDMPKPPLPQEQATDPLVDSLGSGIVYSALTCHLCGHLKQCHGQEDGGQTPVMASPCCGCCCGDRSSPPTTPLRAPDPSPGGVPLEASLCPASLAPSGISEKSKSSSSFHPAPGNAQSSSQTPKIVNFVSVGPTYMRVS
Assay: cell-based or functional assay
property: Relative Inhibition of IL-13 induced TF-1 Proliferation IC50

binder: Construct 37 (mAb470) (antibody, IgG4, V domains shown, VH/VL only) VH: EVQLVESGGGLEQPGGSLRLSCAGSGFTFRTYAMTWVRQAPGKGLEWVSSISGGGGNTYYADSVKGRFTISRDNSKNTLYLQMNSLRAEDTAVYYCAKDRLSVTVRPRYYGLDVWGQGTTVTVSS VL: DIVMTQSPLSLPVTPGEPASISCRASQSLLYSVGYNYVDWYLQKSGQSPQLLIYLGNNRASGVPDRFSGSGSGTDFTLKISRVEAEDVGFYYCMQSLTSPYTFGQGTKLEIK
result: 0.919 relative to dupilumab
--
binder: Construct 23 (mAb431) (antibody, V domains shown, VH/VL only) VH: EVQLVESGGGLEQPGGSLRLSCAGSGFTFRDFAMTWVRQAPGKGLEWVSSISGGGGSTYYADSVKGRFTISRDNSKNTLYLQMNSLRAEDTAVYYCAKDRLSVTVRPRYYGLDVWGQGTTVTVSS VL: DIVMTQSPLSLPVTPGEPASISCRSSQSVLYSIGKNYVDWYLQKSGQSPQLLIYLGSQRATGVPDRFSGSGSGTDFTLKISRVEAEDVGFYYCMQSLTSPYTFGQGTKLEIK
result: 0.732 relative to dupilumab
--
binder: Construct 3 (mAb412) (antibody, IgG4, V domains shown, VH/VL only) VH: EVQLVESGGGLEQPGGSLRLSCAGSGFTFRDFAMTWVRQAPGKGLEWVSSISGSGSSTYYADSVKGRFTISRDNSKNTLYLQMNSLRAEDTAVYYCAKDRLSITVRPRYYGLDVWGQGTTVTVSS VL: DIVMTQSPLSLPVTPGEPASISCRSSQSLLYSIGYNYVDWYLQKSGQSPQLLIYLGNKRASGVPDRFSGSGSGTDFTLKISRVEAEDVGFYYCMQALTTPYTFGQGTKLEIK
result: 0.683 relative to dupilumab
--
binder: Construct 29 (mAb437) (antibody, IgG4, V domains shown, VH/VL only) VH: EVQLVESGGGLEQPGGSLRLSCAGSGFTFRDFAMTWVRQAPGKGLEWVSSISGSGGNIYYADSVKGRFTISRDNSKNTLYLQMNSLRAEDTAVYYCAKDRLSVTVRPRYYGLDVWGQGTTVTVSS VL: DIVMTQSPLSLPVTPGEPASISCTSSQSLLYSIGYNYVDWYLQKSGQSPQLLIYLGNKRASGVPDRFSGSGSGTDFTLKISRVEAEDVGFYYCMQSLTSPYTFGQGTKLEIK
result: 0.851 relative to dupilumab
